system: Salmonella enterica subsp. enterica; assay: Antimicrobial activity against Salmonella enterica Serovar Typhi isolate AG182 harboring DNA gyrase A S83F mutation by disk diffusion method; assay type: functional, Salmonella enterica subsp. enterica serovar Typhi
Entries and their MIC values follow.
Report as a plain number; the unit µg/mL is understood.

compound | MIC (µg/mL)
COc1c(N2CCNC(C)C2)c(F)cc2c(=O)c(C(=O)O)cn(C3CC3)c12 (centres undefined) | 0.13
O=C(O)c1cn(C2CC2)c2cc(N3CCNCC3)c(F)cc2c1=O | 0.38

Next, consider the following compound.
Endpoint output: MIC of CC1COc2c(N3CCN(C)CC3)c(F)cc3c(=O)c(C(=O)O)cn1c23 (centres undefined) . Value?
1

* * *

system: Salmonella enterica subsp. enterica; test: Antimicrobial activity against multidrug-resistant Salmonella enterica Serovar Typhi isolate ipt 32 harboring DNA gyrase A S83F mutation by disk diffusion method; assay type: functional, Salmonella enterica subsp. enterica serovar Typhi
Entries and their MIC values follow.
Report as a plain number; the unit µg/mL is understood.

Completed entries (count: 3):
molecule | unit name | MIC
O=C(O)c1cn(C2CC2)c2cc(N3CCNCC3)c(F)cc2c1=O [CIPROFLOXACIN] | µg/mL | 0.5
CCn1cc(C(=O)O)c(=O)c2ccc(C)nc21 [NALIDIXIC ACID] | µg/mL | 256
CC1COc2c(N3CCN(C)CC3)c(F)cc3c(=O)c(C(=O)O)cn1c23 (centres undefined) [OFLOXACIN] | µg/mL | 1

Next, consider the following molecule.
Endpoint output: MIC of COc1c(N2CCNC(C)C2)c(F)cc2c(=O)c(C(=O)O)cn(C3CC3)c12 (centres undefined) [GATIFLOXACIN] . Value?
0.125

* * *

system: Salmonella enterica subsp. enterica; assay: Antimicrobial activity against multidrug-resistant Salmonella enterica Serovar Typhi isolate DT15 harboring DNA gyrase A S83F mutation by disk diffusion method; format: functional, Salmonella enterica subsp. enterica serovar Typhi
Entries and their MIC values follow.
Report as a plain number; the unit µg/mL is understood.

Completed entries (count: 2):
molecule | MIC, µg/mL
COc1c(N2CCNC(C)C2)c(F)cc2c(=O)c(C(=O)O)cn(C3CC3)c12 (centres undefined) | 0.094
O=C(O)c1cn(C2CC2)c2cc(N3CCNCC3)c(F)cc2c1=O | 0.5

Next, consider the following molecule.
Endpoint output: MIC of CC1COc2c(N3CCN(C)CC3)c(F)cc3c(=O)c(C(=O)O)cn1c23 (centres undefined) . Value?
1

* * *

Entries and their MIC values follow.
system: Salmonella enterica subsp. enterica; assay: Antimicrobial activity against multidrug-resistant Salmonella enterica Serovar Typhi isolate nar 51 harboring DNA gyrase A S83F mutation by disk diffusion method; type: functional, Salmonella enterica subsp. enterica serovar Typhi
Report as a plain number; the unit µg/mL is understood.

compound | MIC / µg/mL
O=C(O)c1cn(C2CC2)c2cc(N3CCNCC3)c(F)cc2c1=O | 0.5
COc1c(N2CCNC(C)C2)c(F)cc2c(=O)c(C(=O)O)cn(C3CC3)c12 (centres undefined) | 0.125
CC1COc2c(N3CCN(C)CC3)c(F)cc3c(=O)c(C(=O)O)cn1c23 (centres undefined) | 1

Next, consider the following compound.
Endpoint output: MIC of CCn1cc(C(=O)O)c(=O)c2ccc(C)nc21 . Value?
256

* * *

Entries and their MIC values follow.
test system: Salmonella enterica subsp. enterica; test: Antimicrobial activity against Salmonella enterica Serovar Typhi isolate CT142 harboring DNA gyrase A S83F mutation by disk diffusion method in presence of plasmid mediated quinolone-resistant gene qnrA and qnrS; type: functional, Salmonella enterica subsp. enterica serovar Typhi
Report as a plain number; the unit µg/mL is understood.

Completed entries (count: 2):
compound | unit name | MIC
O=C(O)c1cn(C2CC2)c2cc(N3CCNCC3)c(F)cc2c1=O [CIPROFLOXACIN] | µg/mL | 0.38
COc1c(N2CCNC(C)C2)c(F)cc2c(=O)c(C(=O)O)cn(C3CC3)c12 (centres undefined) [GATIFLOXACIN] | µg/mL | 0.125

Next, consider the following compound.
Endpoint output: MIC of CC1COc2c(N3CCN(C)CC3)c(F)cc3c(=O)c(C(=O)O)cn1c23 (centres undefined) [OFLOXACIN] . Value?
1

* * *

test system: Salmonella enterica subsp. enterica; assay: Antimicrobial activity against multidrug-resistant Salmonella enterica Serovar Typhi isolate BL 3769 harboring DNA gyrase A S83F mutation by disk diffusion method in presence of plasmid mediated quinolone-resistant gene qnrA and qnrS; format: functional, Salmonella enterica subsp. enterica serovar Typhi
parameter measured: MIC (µg/mL)
Report as a plain number; the unit µg/mL is understood.

Completed entries (count: 2):
molecule | MIC, µg/mL
COc1c(N2CCNC(C)C2)c(F)cc2c(=O)c(C(=O)O)cn(C3CC3)c12 (centres undefined) | 0.19
CC1COc2c(N3CCN(C)CC3)c(F)cc3c(=O)c(C(=O)O)cn1c23 (centres undefined) | 0.5

Endpoint output: MIC of O=C(O)c1cn(C2CC2)c2cc(N3CCNCC3)c(F)cc2c1=O . Value?
0.25

* * *

tested on: Salmonella enterica subsp. enterica; assay: Antimicrobial activity against Salmonella enterica Serovar Typhi isolate CT144 harboring DNA gyrase A D87G mutation by disk diffusion method in presence of plasmid mediated quinolone-resistant gene qnrA and qnrS; assay type: functional, Salmonella enterica subsp. enterica serovar Typhi
Entries and their MIC values follow.
Report as a plain number; the unit µg/mL is understood.

Completed entries (count: 2):
compound | unit name | MIC
COc1c(N2CCNC(C)C2)c(F)cc2c(=O)c(C(=O)O)cn(C3CC3)c12 (centres undefined) | µg/mL | 0.094
O=C(O)c1cn(C2CC2)c2cc(N3CCNCC3)c(F)cc2c1=O | µg/mL | 0.25

Next, consider the following compound.
Endpoint output: MIC of CC1COc2c(N3CCN(C)CC3)c(F)cc3c(=O)c(C(=O)O)cn1c23 (centres undefined) . Value?
1

* * *

test system: Salmonella enterica subsp. enterica; experiment: Antimicrobial activity against Salmonella enterica Serovar Typhi isolate ipt 2 harboring DNA gyrase A D87G mutation by disk diffusion method in presence of plasmid mediated quinolone-resistant gene qnrA and qnrS; type: functional, Salmonella enterica subsp. enterica serovar Typhi
Entries and their MIC values follow.

compound | assay value
O=C(O)c1cn(C2CC2)c2cc(N3CCNCC3)c(F)cc2c1=O [CIPROFLOXACIN] | 0.25 µg/mL
COc1c(N2CCNC(C)C2)c(F)cc2c(=O)c(C(=O)O)cn(C3CC3)c12 (centres undefined) [GATIFLOXACIN] | 0.125 µg/mL
CCn1cc(C(=O)O)c(=O)c2ccc(C)nc21 [NALIDIXIC ACID] | 256 µg/mL

Endpoint output: MIC of CC1COc2c(N3CCN(C)CC3)c(F)cc3c(=O)c(C(=O)O)cn1c23 (centres undefined) [OFLOXACIN] . Value?
2 µg/mL

* * *

test system: Salmonella enterica subsp. enterica; test: Antimicrobial activity against multidrug-resistant Salmonella enterica Serovar Typhi isolate nar 46 harboring DNA gyrase A D87G mutation by disk diffusion method; assay type: functional, Salmonella enterica subsp. enterica serovar Typhi
parameter measured: MIC (µg/mL)
Report as a plain number; the unit µg/mL is understood.

Completed entries (count: 3):
molecule | MIC (µg/mL)
CCn1cc(C(=O)O)c(=O)c2ccc(C)nc21 | 64
CC1COc2c(N3CCN(C)CC3)c(F)cc3c(=O)c(C(=O)O)cn1c23 (centres undefined) | 0.5
O=C(O)c1cn(C2CC2)c2cc(N3CCNCC3)c(F)cc2c1=O | 0.06

Next, consider the following molecule.
Endpoint output: MIC of COc1c(N2CCNC(C)C2)c(F)cc2c(=O)c(C(=O)O)cn(C3CC3)c12 (centres undefined) . Value?
0.032

* * *

Entries and their MIC values follow.
tested on: Salmonella enterica subsp. enterica; test: Antimicrobial activity against multidrug-resistant Salmonella enterica Serovar Typhi isolate DT3 harboring DNA gyrase A S83F mutation by disk diffusion method in presence of plasmid mediated quinolone-resistant gene qnrA and qnrS; format: functional, Salmonella enterica subsp. enterica serovar Typhi
Report as a plain number; the unit µg/mL is understood.

Completed entries (count: 2):
compound | parameter measured | assay value
CC1COc2c(N3CCN(C)CC3)c(F)cc3c(=O)c(C(=O)O)cn1c23 (centres undefined) | MIC | 2
O=C(O)c1cn(C2CC2)c2cc(N3CCNCC3)c(F)cc2c1=O | MIC | 0.5

Next, consider the following compound.
Endpoint output: MIC of COc1c(N2CCNC(C)C2)c(F)cc2c(=O)c(C(=O)O)cn(C3CC3)c12 (centres undefined) . Value?
0.094

* * *

system: Salmonella enterica subsp. enterica; test: Antimicrobial activity against multidrug-resistant Salmonella enterica Serovar Typhi isolate DT37 harboring DNA gyrase A S83F mutation by disk diffusion method; assay type: functional, Salmonella enterica subsp. enterica serovar Typhi
Entries and their MIC values follow.

Completed entries (count: 3):
compound | MIC
CCn1cc(C(=O)O)c(=O)c2ccc(C)nc21 | > 256 mg/L
CC1COc2c(N3CCN(C)CC3)c(F)cc3c(=O)c(C(=O)O)cn1c23 (centres undefined) | 1 mg/L
O=C(O)c1cn(C2CC2)c2cc(N3CCNCC3)c(F)cc2c1=O | 0.5 mg/L

Next, consider the following compound.
Endpoint output: MIC of COc1c(N2CCNC(C)C2)c(F)cc2c(=O)c(C(=O)O)cn(C3CC3)c12 (centres undefined) . Value?
0.125 mg/L

Data provenance is ChEMBL document CHEMBL1152457.
